test system: TO-3-N3 (biotin conjugate); test: pull-down binding Z-score (relative to library population); higher = stronger binding; details: RNA library: Library-2
Measured pull-down binding Z-score, listed per entry for reference.
Please respond with just the number, no unit label.

So what does the record say about pull-down binding Z-score for UAUAUGCUUUUUAAAUGGGGCACAGA [hsa-mir-5586] ?
-0.275

Also AUAUAGAUAUCAGCUACCUAUAU [hsa-mir-3144] ?
-0.694

Also UGUAAGUUUGCGAUGAGACACUACA [hsa-mir-144] ?
0.0531

Also `AUGCCAACUAUUUUCUUUGCUGGCAU` ?
-0.81

Also CAAUCAUGUAUAAUUAAAUUUGAUUG [hsa-mir-514a-1] ?
-0.112

Also AUGUCUCAGGUCCCCAGCUGAGUCAA [hsa-mir-6513] ?
0.633

Also GCUGUGUUGAAUGAUUGGUGAGUUUGUUUGCUCAUUGAUUGAAUCACUGC [hsa-mir-3678] ?
-0.734

Also GUGUAUGGGCUGAGCCUUGC [hsa-mir-6805] ?
-0.021

Also GGGAGAUAACAUUCC [IAV_invivo_M1_M2_7_Motif_7+IAV_invivo_M1_M2_7_Motif_7] ?
-0.149

Also CCUGAUGAAUCUGAGGCCAGG [hsa-mir-577] ?
-0.271

Also UAGGUUUUUCUACAGGUGUUAACCUA [SHAPE_invitro_SARS-CoV-2_Motif_336] ?
-0.603

Also UGUGUACACACA [SHAPE_invivo_SARS-CoV-2_Motif_249] ?
0.252

Also `UGGGGACCAGGAACUAAUCAGACAAGGAACUGAUUACAAACAUUGGCCGCAAAUUGCACAAUUUGCCCCCA` ?
-0.075

Also `GCAGUUAAAAUGUUUGAUGCUUACGUUAAUACGUUUUCAUCAACUUUUAACGU` ?
-1.09

Also AGAUGAGUUUAUGUUUUAUCCAACU [hsa-mir-193b] ?
-0.608

Also GUCCCAAUACAUGUGGGCC [hsa-mir-586] ?
-0.000511

Also CCUUGCACCUAAUAUGAUGGUAACAAACAAUACCUUCACACUCAAAGGCGGUGCACCAACAAAGGUUACUUUUGGUGAUGACACUGUGAUAGAAGUGCAAGG [SHAPE_invivo_SARS-CoV-2_Multi_7_ComplexLevel_1] ?
-0.657

Also GGCAGUGGUUCUAAAAGCUGUC [hsa-mir-3618] ?
0.861

Also CAGUCAGUAAAUAUUUUUUUGUGAAUG [hsa-mir-511] ?
-0.305

Also UGGUUUGACACAGAGCUAAAUCA [hsa-mir-5007] ?
0.00148

---

Measured pull-down binding Z-score, listed per entry for reference.
tested on: TO-N3 (biotin conjugate); assay: pull-down binding Z-score (relative to library population); higher = stronger binding; details: RNA library: Library-2
Please respond with just the number, no unit label.

| entry sequence | experimental target | experimental endpoint | value measured |
| --- | --- | --- | --- |
| GGCUCAUAGACUUCCUUAAGGAUGUAAUGGAGUC [IAV_invivo_PB1_2_Motif_10+IAV_invivo_PB1_2_Motif_10] | TO-N3 (biotin conjugate) | pull-down binding Z-score | 0.795 |
| UGAUGUUUGUCA | TO-N3 (biotin conjugate) | pull-down binding Z-score | -0.762 |
| UGUGCCUGCCUUCGAAGUGCACGGCAGG [hsa-mir-4297] | TO-N3 (biotin conjugate) | pull-down binding Z-score | 0.519 |
| AUUGUUGUGGGGUAGGGAUAUUAGGCCCCAAUUAGAAGAUAACUAU [hsa-mir-98] | TO-N3 (biotin conjugate) | pull-down binding Z-score | 1.07 |

So what does the record say about pull-down binding Z-score for CACUCCCGUGCUUGUCCGAGGAGGGAGG [hsa-mir-149] ?
2.63
